- Protocol Text: Plasma and tumor pharmacokinetics in A2058 xenograft mice
- Format: in vivo, BALB/c nude mice
- Assay Conditions: BALB/c nude, mouse, plasma, oral; 1 h; single dose p.o.; Compound 1 10 mg/kg; Encorafenib 35 mg/kg; Dabrafenib 100 mg/kg; read-out: Concentration in Plasma ± SEM
# concentration at 1 h listing for each entry below
Expressed in ng/mL, but write only the number.

record_smiles=COC(=O)N[C@@H](C)CNc1nccc(-c2cn(C(C)C)nc2-c2cc(Cl)cc(NS(C)(=O)=O)c2F)n1 observed_measurement=14500
record_smiles=CCN(C)S(=O)(=O)Nc1ccc(F)c(Oc2ccc3ncn([C@H]4COC5(CCN(C(=O)CC6(O)CCN(c7cc8c(cc7F)c(N7CCC(=O)NC7=O)nn8C)CC6)CC5)C4)c(=O)c3c2)c1C#N observed_measurement=32500

Here is another compound to look at.
[Q] Given CC(C)(C)c1nc(-c2cccc(NS(=O)(=O)c3c(F)cccc3F)c2F)c(-c2ccnc(N)n2)s1 , respond with its concentration at 1 h.
[A] 5500
